target: human Mac-1 (integrin αMβ2, CD11b/CD18) (human, UniProt P11215 17-1152; P05107 23-769); assay: flow cytometry, HEK293/Mac-1 cells, PBS (Mock), 10 µg/ml of this antibody; binding of reporter mAb m24 read
m24 (Expression relative to IgG4) values, listed per item
reported-endpoint: m24 (Expression relative to IgG4)

1) anti-Mac-1 antibody clone DF4-22 (antibody, human IgG4, V domains shown) VH: EVQLVESGGGLVQPGGSLRLSCAASGFTFTDYNVHWVRQAPGKGLEWVSGINSSGSETNYADSVKGRFTISRDNSKNTLYLQMNSLRAEDTAVYYCARDSVFKTVGGYDAVMDYWGQGTLVTVSS VL: DIQMTQSPSSLSASVGDRVTITCRASQSIYNYLAWYQQKPGKAPKLLIYGTSTLQSGVPSRFSGSGSGTDFTLTISSLQPEDFATYYCMQSYSSPTTFGQGTKVEIK : 15.7 relative to IgG4
2) anti-Mac-1 antibody clone 28E07-HH (antibody, human IgG4, V domains shown) VH: QVQLVQSGAEVKKPGASVKVSCKASGYSFTDYNMNWVRQAPGQGLEWMGEINPGYGTSRYNQKFKDRVTMTRDTSISTAYMELSRLRSDDTAVYYCARADVDYGDVMDYWGQGTLVTVSS VL: EIVLTQSPATLSLSPGERATLSCSASSSVSYMHWYQQKPGQAPRLLIYDTSKLASGIPARFSGSGSGTDFTLTISSLEPEDFAVYYCQQWSSNPPTFGQGTKLEIK : 0.83 relative to IgG4
3) anti-Mac-1 antibody clone 27D06 (antibody, human IgG4, V domains shown) VH: QVKLQESGAEVVKPGASVKISCKASGYSFTDYNMNWVKQSNGKSLEWIGVINPNYGTTSYNQKFKGKATLTVDQSSSTAYMQLNSLTSEDSAVYYCARTYDYDGDAFAYWGQGTTVTVSS VL: DIELTQSPALMSASPGEKVTMTCRASSSVSSNNLHWYQQKSGASPKLWIYSTSNLATGAPARFSGSGSGTSYSLTISSMEAEDAATYYCQQWNSNPPTFGGGTKLEIK : 1.2 relative to IgG4
